These measurements were taken from patent US8067447B2.

# Test system: human full-length glucocorticoid receptor (Homo sapiens, UniProt P04150)
# Construct: a cell lysate containing recombinantly expressed human full-length glucocorticoid receptor; purchased PanVera Co., Madison, Wis; P2816
# Sequence (P04150 whole entry): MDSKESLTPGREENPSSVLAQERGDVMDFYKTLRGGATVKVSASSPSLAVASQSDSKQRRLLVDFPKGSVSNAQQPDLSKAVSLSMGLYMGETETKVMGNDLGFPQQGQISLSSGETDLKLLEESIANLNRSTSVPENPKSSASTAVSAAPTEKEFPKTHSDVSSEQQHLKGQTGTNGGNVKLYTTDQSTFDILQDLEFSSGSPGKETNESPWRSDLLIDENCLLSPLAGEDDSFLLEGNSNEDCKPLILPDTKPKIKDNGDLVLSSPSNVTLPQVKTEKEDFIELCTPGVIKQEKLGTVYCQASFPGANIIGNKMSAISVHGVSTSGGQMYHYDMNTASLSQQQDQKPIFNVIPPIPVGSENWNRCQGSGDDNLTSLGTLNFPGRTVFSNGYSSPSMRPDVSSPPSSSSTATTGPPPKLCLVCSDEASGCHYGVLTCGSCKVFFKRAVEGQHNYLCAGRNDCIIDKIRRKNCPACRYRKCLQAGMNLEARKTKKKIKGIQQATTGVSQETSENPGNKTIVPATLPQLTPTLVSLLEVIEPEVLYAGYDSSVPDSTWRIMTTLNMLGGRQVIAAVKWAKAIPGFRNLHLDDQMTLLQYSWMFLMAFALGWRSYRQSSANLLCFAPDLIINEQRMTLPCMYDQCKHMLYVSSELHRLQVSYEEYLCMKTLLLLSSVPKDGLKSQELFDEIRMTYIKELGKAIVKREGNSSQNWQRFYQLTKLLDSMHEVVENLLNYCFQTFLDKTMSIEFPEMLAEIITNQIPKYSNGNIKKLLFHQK
# Experiment summary: Glucocorticoid Receptor Binding Assay (II), fluorescence polarization competitor kit (Fluormone GS1)
# Condition: cell lysate with recombinant human full-length GR, 1 nM Fluormone GS1, FP
// log10(Ki) lookup, one value per entry
Response schema: value (number) is log10 of Ki in units of nM.

Consider the worked cases shown below.
| Molecule | Experimental value |
| --- | --- |
| CC(C)(C(=O)Nc1nncs1)C(c1ccc2c(cnn2-c2ccc(F)cc2)c1)C1CC1 (centres unmarked) | 0.23 |
| CC(=O)OCC(C)(C(=O)Nc1nncs1)C(c1ccccc1)c1ccc2c(cnn2-c2ccc(F)cc2)c1 (centres unmarked) | 0.41 |
| CCC(C(=O)Nc1nncs1)C(c1ccccc1)c1ccc2c(cnn2-c2ccc(F)cc2)c1 (centres unmarked) | 0.04 |

# query: log10(Ki) of entry CCCC(C(=O)Nc1nncs1)C(c1ccccc1)c1ccc2c(cnn2-c2ccc(F)cc2)c1 (centres unmarked)
0.23
